Hello, the source for this data is patent US8455665B2, in case you need it.

The following compounds are listed with their measured IC50 values.
# experimental system: NET (Homo sapiens, UniProt P23975)
# Sequence (P23975 whole entry): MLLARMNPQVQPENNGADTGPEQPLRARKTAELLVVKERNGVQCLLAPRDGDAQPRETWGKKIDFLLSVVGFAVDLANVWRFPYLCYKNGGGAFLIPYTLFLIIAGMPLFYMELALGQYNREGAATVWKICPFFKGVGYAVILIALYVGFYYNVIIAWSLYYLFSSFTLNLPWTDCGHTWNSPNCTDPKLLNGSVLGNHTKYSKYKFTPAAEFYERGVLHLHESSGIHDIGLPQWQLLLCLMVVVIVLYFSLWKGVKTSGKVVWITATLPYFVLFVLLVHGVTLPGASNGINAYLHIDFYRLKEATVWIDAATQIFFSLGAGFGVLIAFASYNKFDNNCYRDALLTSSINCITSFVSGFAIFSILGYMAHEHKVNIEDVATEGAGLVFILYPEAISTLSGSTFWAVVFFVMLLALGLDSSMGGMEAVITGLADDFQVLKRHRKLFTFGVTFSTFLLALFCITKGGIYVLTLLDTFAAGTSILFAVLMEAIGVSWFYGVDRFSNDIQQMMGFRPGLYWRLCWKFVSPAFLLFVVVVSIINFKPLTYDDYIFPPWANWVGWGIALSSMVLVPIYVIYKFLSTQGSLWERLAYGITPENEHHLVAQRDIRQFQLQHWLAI
# measurement notes: fluorescence-based norepinephrine uptake assay (Tsuruda et al. 2010)
# Type: cell-based
# experimental context: norepinephrine reuptake inhibition, fluorescence-based assay (data indicated by an asterisk); read-out: NET pIC50 (converted)

Examples with answers:
- compound: "CCOC[C@H](Oc1ccc(C(F)(F)F)cc1)[C@H]1CCNC1"
  val: "≤ 100 nM"
- compound: "CCOC[C@H](Oc1ccc(Cl)c(Cl)c1)[C@H]1CCNC1"
  val: "≤ 100 nM"

Task item: # lookup: IC50 of "CCOC[C@H](Oc1cccc(C(F)(F)F)c1F)[C@H]1CCNC1"
Reply: ≤ 100 nM

Task item: # lookup: IC50 of Clc1ccc(OC(COCc2ccccc2)C2CCNC2)c(Cl)c1 (centres unmarked)
Reply: ≤ 100 nM

Task item: # lookup: IC50 of "CCOC[C@H](Oc1c(Cl)ccc(Cl)c1F)[C@H]1CCNC1"
Reply: ≤ 10 nM

Task item: # lookup: IC50 of CC(C)OCC(Oc1cccc(Cl)c1C(F)(F)F)C1CCNC1 (centres unmarked)
Reply: ≤ 10 nM

Task item: # lookup: IC50 of "CCOC[C@H](Oc1cccc(F)c1F)[C@H]1CCNC1"
Reply: ≤ 10 nM

Task item: # lookup: IC50 of "CC(C)OC[C@H](Oc1cccc(Cl)c1C(F)(F)F)[C@@H]1CCNC1"
Reply: ≤ 100 nM

Task item: # lookup: IC50 of "Cc1c(Cl)cccc1O[C@@H](COC(C)C)[C@@H]1CCNC1"
Reply: ≤ 100 nM

Task item: # lookup: IC50 of "CCOC[C@@H](Oc1cccc(C(F)(F)F)c1)[C@H]1CCNC1"
Reply: ≤ 100 nM

Task item: # lookup: IC50 of "CC(C)SC[C@@H](Oc1cccc(Cl)c1Cl)[C@H]1CCNC1"
Reply: ≤ 10 nM

Task item: # lookup: IC50 of "CC(C)OC[C@@H](Oc1cccc(Cl)c1C(F)(F)F)[C@H]1CCNC1"
Reply: ≤ 10 nM

Task item: # lookup: IC50 of "Cc1c(Cl)cccc1O[C@H](COC(C)C)[C@H]1CCNC1"
Reply: ≤ 10 nM

Task item: # lookup: IC50 of "CCOC[C@H](Oc1ccc(Cl)cc1Cl)[C@H]1CCNC1"
Reply: ≤ 10 nM
